Tested on: A498
TEST PROTOCOL: GI50 of drug in presence of dasatinib; higher = less potent
MEASUREMENT PARAMETERS: treatment: drug + dasatinib (fixed dose, not stated); 5 days
Each record here notes measured GI50 of drug.
The reply should be a number in µM, with the unit left off.

# MOLECULE, GI50 of drug, µM
data = [
    ("O=C(Cc1ccc(-c2ccc(OCCN3CCOCC3)cc2)cn1)NCc1ccccc1 [KX2-391] + Cc1nc(Nc2ncc(C(=O)Nc3c(C)cccc3Cl)s2)cc(N2CCN(CCO)CC2)n1 [dasatinib]", 0.0776),
]

Turning now to a further record.
Query: GI50 of drug; subject: O=C1C(=O)N(Cc2ccc(Cl)c(Cl)c2)c2ccccc21 [Apoptosis Activator 2] + Cc1nc(Nc2ncc(C(=O)Nc3c(C)cccc3Cl)s2)cc(N2CCN(CCO)CC2)n1 [dasatinib]
8.37
